biological target: ABCB1/MDR1/Pgp (Homo sapiens); test: in vitro; conditions: probe 3H-N-methyl-quinidine (NMQ), 1 µM
Sequence (P08183 whole entry): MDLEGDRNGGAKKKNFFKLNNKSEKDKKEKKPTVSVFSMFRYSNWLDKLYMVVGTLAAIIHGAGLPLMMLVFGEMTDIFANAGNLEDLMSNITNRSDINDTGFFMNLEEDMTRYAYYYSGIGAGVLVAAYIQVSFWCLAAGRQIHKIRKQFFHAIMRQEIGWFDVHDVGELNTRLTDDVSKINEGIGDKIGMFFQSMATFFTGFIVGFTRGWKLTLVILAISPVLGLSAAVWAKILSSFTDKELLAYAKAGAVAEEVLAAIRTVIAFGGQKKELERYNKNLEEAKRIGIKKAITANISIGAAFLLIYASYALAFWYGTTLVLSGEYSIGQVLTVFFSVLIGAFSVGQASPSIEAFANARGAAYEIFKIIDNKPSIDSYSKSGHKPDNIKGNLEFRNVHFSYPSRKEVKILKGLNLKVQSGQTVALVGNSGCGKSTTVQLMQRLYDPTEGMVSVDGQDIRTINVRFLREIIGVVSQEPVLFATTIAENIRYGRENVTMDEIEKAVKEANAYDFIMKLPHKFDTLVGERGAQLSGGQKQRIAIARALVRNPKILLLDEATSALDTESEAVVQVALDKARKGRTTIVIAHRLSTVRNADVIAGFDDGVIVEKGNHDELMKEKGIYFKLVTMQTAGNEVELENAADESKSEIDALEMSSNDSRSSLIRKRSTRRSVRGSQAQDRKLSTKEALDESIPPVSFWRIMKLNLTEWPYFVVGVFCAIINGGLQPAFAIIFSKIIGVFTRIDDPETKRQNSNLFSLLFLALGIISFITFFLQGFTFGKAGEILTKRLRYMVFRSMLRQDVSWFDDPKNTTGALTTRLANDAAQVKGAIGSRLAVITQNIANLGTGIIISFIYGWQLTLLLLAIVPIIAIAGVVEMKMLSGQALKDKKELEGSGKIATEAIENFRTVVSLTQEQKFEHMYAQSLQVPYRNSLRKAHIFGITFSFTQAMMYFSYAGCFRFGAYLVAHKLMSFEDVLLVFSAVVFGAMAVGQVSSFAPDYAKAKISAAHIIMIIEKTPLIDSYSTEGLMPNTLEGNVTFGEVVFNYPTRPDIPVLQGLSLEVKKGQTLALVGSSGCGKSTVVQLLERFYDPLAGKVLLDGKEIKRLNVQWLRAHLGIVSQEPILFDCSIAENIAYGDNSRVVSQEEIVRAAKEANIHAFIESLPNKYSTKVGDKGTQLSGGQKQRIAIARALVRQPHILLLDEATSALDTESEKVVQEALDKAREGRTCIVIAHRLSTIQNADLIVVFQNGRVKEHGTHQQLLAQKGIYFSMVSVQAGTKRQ
Recorded Endpoint: IC50 at 1 min

Enquiry: GET /values?readout=IC50 at 1 min&item= NC(=O)c1nc(F)c[nH]c1=O
Return: > 50 µM

====

target: ABCC1/MRP1 (Homo sapiens, UniProt P33527); test: in vitro; settings: HL60/ABCC1 cells
Sequence (P33527 whole entry): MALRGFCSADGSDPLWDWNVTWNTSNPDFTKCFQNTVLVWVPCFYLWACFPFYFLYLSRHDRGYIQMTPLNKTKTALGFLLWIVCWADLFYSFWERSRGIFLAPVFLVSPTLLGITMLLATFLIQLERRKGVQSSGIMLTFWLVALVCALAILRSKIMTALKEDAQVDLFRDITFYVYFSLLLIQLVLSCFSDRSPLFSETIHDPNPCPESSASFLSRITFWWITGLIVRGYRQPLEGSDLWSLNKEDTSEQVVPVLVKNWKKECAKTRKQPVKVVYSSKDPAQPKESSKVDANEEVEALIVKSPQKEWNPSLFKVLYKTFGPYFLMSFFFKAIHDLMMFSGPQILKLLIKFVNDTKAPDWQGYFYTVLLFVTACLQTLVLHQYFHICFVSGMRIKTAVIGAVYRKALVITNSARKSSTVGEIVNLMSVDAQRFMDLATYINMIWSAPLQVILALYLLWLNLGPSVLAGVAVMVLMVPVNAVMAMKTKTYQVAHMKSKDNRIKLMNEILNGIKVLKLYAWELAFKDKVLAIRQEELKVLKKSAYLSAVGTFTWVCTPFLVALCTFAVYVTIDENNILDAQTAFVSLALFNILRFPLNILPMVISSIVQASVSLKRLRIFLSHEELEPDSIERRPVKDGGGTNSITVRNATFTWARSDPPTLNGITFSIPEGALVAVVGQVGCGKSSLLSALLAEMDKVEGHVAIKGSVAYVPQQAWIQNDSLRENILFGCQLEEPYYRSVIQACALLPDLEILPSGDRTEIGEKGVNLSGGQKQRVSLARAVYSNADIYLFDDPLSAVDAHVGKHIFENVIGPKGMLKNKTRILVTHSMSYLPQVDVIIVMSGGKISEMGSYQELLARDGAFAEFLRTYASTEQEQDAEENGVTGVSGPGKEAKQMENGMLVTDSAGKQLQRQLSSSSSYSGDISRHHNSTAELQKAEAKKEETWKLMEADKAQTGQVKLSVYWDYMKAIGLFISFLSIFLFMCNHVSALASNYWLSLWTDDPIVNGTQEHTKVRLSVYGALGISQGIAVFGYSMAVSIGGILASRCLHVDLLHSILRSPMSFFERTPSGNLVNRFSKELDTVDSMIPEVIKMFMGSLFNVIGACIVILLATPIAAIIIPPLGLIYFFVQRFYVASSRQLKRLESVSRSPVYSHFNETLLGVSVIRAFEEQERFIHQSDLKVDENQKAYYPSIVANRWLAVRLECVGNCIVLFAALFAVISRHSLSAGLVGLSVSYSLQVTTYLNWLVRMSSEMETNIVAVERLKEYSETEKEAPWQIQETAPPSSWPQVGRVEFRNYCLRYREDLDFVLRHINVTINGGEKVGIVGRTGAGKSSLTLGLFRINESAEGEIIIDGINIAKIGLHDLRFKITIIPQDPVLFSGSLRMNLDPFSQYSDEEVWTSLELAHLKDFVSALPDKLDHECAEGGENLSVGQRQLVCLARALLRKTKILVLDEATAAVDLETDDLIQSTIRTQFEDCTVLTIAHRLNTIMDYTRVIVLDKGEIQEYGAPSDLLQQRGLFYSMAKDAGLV
Recorded Endpoint: Effect on ABCC1-dependent CaAM extrusion (in words)

CCN(CCO)CCCC(C)Nc1ccnc2cc(Cl)ccc12 (stereo not shown) [hydroxychloroquine] : practically no effect
CCN(CC)CCCC(C)Nc1ccnc2cc(Cl)ccc12 (stereo not shown) : practically no effect
